This collection of values is drawn from PubChem BioAssay.

Target: Alpha-2C adrenergic receptor (Homo sapiens)
Test: modulators of alpha2C/GIRK thallium flux, primary screen, cell-based, HEK293 alpha2C/GIRK1/2 (AID 624);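 also: slope of fluorescence ratio to pre-addition baseline per second over 15 to 24 s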
Conditions: thallium flux BTC fluorescence, at 10 µM, actives lie on both sides
MEASUREMENT TYPE: slope
The reply should be a number, written without any unit.

# compound Cc1cc(Nc2ccccc2)n(-c2ccccc2)n1 ; its slope = 0.00371

# compound CCOc1cc2[nH]c(=O)n(CCC(=O)NCCc3ccc(OC)c(OC)c3)c(=O)c2cc1OCC ; its slope = 0.00653

# compound Cc1ccc(S(=O)(=O)Nc2cc(C(=O)O)ccc2N2CCCCC2)cc1 ; its slope = 0.00575

# compound Cc1oc(-c2ccc(Cl)cc2)cc1-c1nn2c(-c3ccoc3C)nnc2s1 ; its slope = 0.00371

# compound COc1ccc(C2CC(C(F)(F)F)n3ncc(C(=O)NCc4cccnc4)c3N2)cc1OC (configuration not stated) ; its slope = 0.00287

# compound CCNC(=O)C1CC(=O)N(Cc2ccc3c(c2)OCO3)C(=Nc2ccc(F)cc2)S1 (configuration not stated) ; its slope = 0.00631

# compound Cc1cc(C)c(S(=O)(=O)Nc2cccnc2)c(C)c1 ; its slope = 0.00327

* * *

Experiment: inhibitors of E-selectin induction by TNFa, primary screen, imaging, HUVEC, immunofluorescence, MLSMR starter and 10KST1 sets (AID 487);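 also: 100% = median nuclei count of all wells on the same plate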
Conditions: HUVEC TNFalpha-induced E-selectin immunofluorescence imaging, at 2 µM; measured here: cell number, toxicity
MEASUREMENT TYPE: nuclei count (%)
Please give a number only; it is taken to be in %.

Before answering, review these 5 worked examples.
O=c1[nH]cnc2c1C1(CCCC1)Cc1ccccc1-2 | 110
Cn1c(N2CCN(c3ccccn3)CC2)nc2c1c(=O)n(Cc1ccccc1Cl)c(=O)n2C | 177
O=C(NCC(=O)N(c1ccc2c(c1)OCCO2)C(C(=O)NC1CCCC1)c1ccco1)c1ccco1 (stereo not given) | 95.6
COc1cccc(Nc2cc(C)nc3ccccc23)c1 | 105
CCCn1c(SCC(=O)Nc2ccccc2C(=O)OC)nc2c1c(=O)n(C)c(=O)n2C | 84.8

Now take the following compound into account.
# compound Cc1ccc(CSC2=NCCN2C(=O)C2CC2)cc1 ; its nuclei count = 107

* * *

Experiment: inhibitors of TNFa-induced NFkB p65 translocation, primary screen, imaging, HUVEC, MLSMR starter and 10KST1 sets (AID 438);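 also: compound added about 3h40 before a 20 min TNFalpha stimulation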;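 as to inhibition: signal is the nuclear over cytoplasmic p65 intensity ratio per well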
Conditions: HUVEC TNFa-induced p65 nuclear translocation; at 2 µM, stronger effect = higher value, 0% TNFa-plus-vehicle, 100% no-TNFa wells
MEASUREMENT TYPE: inhibition (%)
Please give a number only; it is taken to be in %.

COC(=O)C(NC(=O)c1ccco1)(Nc1ccc(Br)cn1)C(F)(F)F (centres undefined) | -8.8
COc1ccccc1N1CCN(C(=O)c2ccc(S(=O)(=O)N3CCCCCC3)cc2)CC1 | -13
Cc1ccccc1Cc1c(C)nc2c(C(=O)N3CCN(Cc4ccc5c(c4)OCO5)CC3)cnn2c1C | -4.4

Now take the following molecule into account.
# molecule CC(C)OC(=O)CCNc1n[nH]c(=O)[nH]c1=O ; its inhibition = -4.3

* * *

Quick reference: cell count of the listed items.
Assay: inhibitors of TNFa-induced NFkB p65 translocation, primary screen, imaging, HUVEC, MLSMR starter and 10KST1 sets (AID 438);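 also: compound added about 3h40 before a 20 min TNFalpha stimulation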
Conditions: HUVEC TNFa-induced p65 nuclear translocation; measured here: nuclei count (cytotoxicity indicator), at 2.08 µM
Where a SMILES comes first, the peptide text is derived from it. The star is where a group is joined. Boc = CC(C)(C)OC(=O)*
The reply should be a number, written without any unit.

Before answering, review these 5 worked examples.
COc1cccc(C(=O)N2CCN(Cc3ccccn3)CC2)c1OC | 503
Nc1c(C(=O)NCc2ccco2)sc2nc(N3CCOCC3)c3c(c12)CCCC3 | 510
CC1(C)CC(=O)C(C=Nc2ccc(Cl)cn2)=C(O)C1 | 493
CC(C)(C)OC(=O)N1CCCC1C(=O)NC(Cc1ccccc1)C(=O)O (stereo not drawn) (Boc-Pro-Phe-OH; configuration not given here) | 431
Cn1ncc2nc[nH]c(=O)c21 | 709

# compound Cc1cc(=O)n(CCC(=O)O)c2ccccc12 ; its cell count = 722

# compound C=COC(=O)CSc1snc(SCC(=O)OC)c1C#N ; its cell count = 300

# compound C=COCCNC(=O)Nc1ccc(Cl)c(Cl)c1 ; its cell count = 387

# compound COc1ccccc1CNC(=O)N[C@@H](Cc1ccccc1)C(=O)O ; its cell count = 602

# compound CCOC(=O)c1[nH]c2ccc(OC)cc2c1NC(=O)CCN1CCCC(C)C1 (stereo unspecified) ; its cell count = 521

# compound CCOC(=O)N1CCN(CCC(=O)c2ccc(Cl)cc2)CC1 ; its cell count = 533

# compound CCC(C)Nc1nc(OC)nc(N(C)C#N)n1 (stereo unspecified) ; its cell count = 675

# compound Cc1cc(CCC(=O)O)c(C)cc1CCC(=O)O ; its cell count = 593

# compound CCN1C(=O)CC(N2CCC(Nc3ccc(F)cc3)CC2)C1=O (stereo unspecified) ; its cell count = 559

# compound Cc1cc(Br)ccc1NC(=O)CNC(=O)CSc1n[nH]c(N)n1 ; its cell count = 390

# compound O=C(CC(C(=O)N1CCc2ccccc21)n1ccnc1)NCc1cccnc1 (stereo unspecified) ; its cell count = 655

# compound CCOC(=O)C1=C(C)NC(=O)NC1c1ccc(OCCO)c(OC)c1 (stereo unspecified) ; its cell count = 634
